System: Vero E6 infected with SARS-CoV-2
PROCEDURE_SUMMARY: inhibition of SARS-CoV-2 cytopathic effect; higher = more antiviral protection, active = above 15
RUN_CONDITIONS: 1 nM; 48 h
PARAMETER_MEASURED: inhibition of SARS-CoV-2 cytopathic effect (%)
Your answer is read as %, so omit the unit and give the number.

{"MOLECULE": "COc1nc(N)nc2c1ncn2[C@@H]1O[C@H](CO)[C@@H](O)[C@@H]1O", "EXPERIMENTAL_RESULT": -1.29}
{"MOLECULE": "COc1cc(C[C@H](C)[C@H](C)Cc2ccc3c(c2)OCO3)ccc1O", "EXPERIMENTAL_RESULT": 0.71}
{"MOLECULE": "COc1ccc2c(Oc3ccc(NC(=O)c4c(C)n(CC(C)(C)O)n(-c5ccccc5)c4=O)nc3)ccnc2c1", "EXPERIMENTAL_RESULT": 2.46}
{"MOLECULE": "CC1(C)S[C@@H]2[C@H](NC(=O)C(C(=O)O)c3ccccc3)C(=O)N2[C@H]1C(=O)O (stereo partly drawn)", "EXPERIMENTAL_RESULT": 2.76}
{"MOLECULE": "O=C(CN1C(=O)C2(CCCC2)NC[C@H]1c1cc(F)cc(F)c1)Nc1ccc2c(c1)C[C@@]1(C2)C(=O)Nc2ncccc21", "EXPERIMENTAL_RESULT": -6.85}

Recorded inhibition of SARS-CoV-2 cytopathic effect (molecule O=c1ccn([C@@H]2O[C@H](CO)[C@@H](O)[C@H]2O)c(=O)[nH]1 ): 0.24

Recorded inhibition of SARS-CoV-2 cytopathic effect (molecule CCCCc1nc(C)c(CC(=S)N(C)C)c(=O)n1Cc1ccc(-c2ccccc2-c2nnn[nH]2)cc1 ): 0.68

Recorded inhibition of SARS-CoV-2 cytopathic effect (molecule OC[C@H]1O[C@@H](O[C@@H]2[C@@H](CO)OC(O)(CO)[C@H]2O)[C@H](O)[C@@H](O)[C@H]1O (mixture of isomers) ): 1.11

Recorded inhibition of SARS-CoV-2 cytopathic effect (molecule CCCC(=O)OCOC(=O)C1=C(C)NC(C)=C(C(=O)OC)C1c1cccc(Cl)c1Cl (stereo not drawn) ): 3.04

Recorded inhibition of SARS-CoV-2 cytopathic effect (molecule COc1cc([C@@H]2c3cc4c(cc3[C@@H](O[C@@H]3O[C@@H]5CO[C@@H](c6cccs6)O[C@H]5[C@H](O)[C@H]3O)[C@H]3COC(=O)[C@H]23)OCO4)cc(OC)c1O [teniposide] ): 1.37

Recorded inhibition of SARS-CoV-2 cytopathic effect (molecule CC1=C(CC(=O)O)c2cc(F)ccc2/C1=C\c1ccc([S+](C)[O-])cc1 (stereo not drawn) ): -0.99

* * *

Tested on: Vero E6 infected with SARS-CoV-2
PROCEDURE_SUMMARY: SARS-CoV-2 infection rate relative to infected DMSO; higher = more infection, active = 60 or less
RUN_CONDITIONS: 24 h
Parameter SARS-CoV-2 infection rate: see the listing below.
Your answer is read as %, so omit the unit and give the number.

Here's what some known entries look like.
{"COMPOUND": "COCc1nnc(N2CC(Oc3ccc(F)cc3Cl)C2)n1-c1ccc(OC)nc1 (10 µM)", "SARS-CoV-2 infection rate [%]": 106}
{"COMPOUND": "Cc1ccc(C(=O)Nc2ccc(CN3CCN(C)CC3)c(C(F)(F)F)c2)cc1C#Cc1cnc2cccnn12 [ponatinib] (10 µM)", "SARS-CoV-2 infection rate [%]": 97}
{"COMPOUND": "CC(=O)[O-].CC(=O)[O-].N.NC1CCCCC1.[Cl-].[Cl-].[Pt+4] [satraplatin] (0.833333 µM)", "SARS-CoV-2 infection rate [%]": 104}

Recorded SARS-CoV-2 infection rate (compound C[C@H](Cc1ccc(O)c(O)c1)[C@@H](C)Cc1ccc(O)c(O)c1 [masoprocol] (10 µM) ): 90
